Tested on: BT474
Assay: Cancer cell growth inhibition (CellTiter-Glo), BT474
Type: cell-based
Settings: Homo sapiens, BT-474; Breast Cancer, BT474, 72 h treatment
Mark Condition met only when IC50 stays strictly below 1 µM. Values equal to the cut-off are Condition not met.

{"compound": "CO[C@@]12[C@H](COC(N)=O)C3=C(C(=O)C(C)=C(N)C3=O)N1C[C@@H]1N[C@@H]12 [Mitomycin, reference compound]", "class_assignment": "Condition not met"}

Say whether its IC50 is strictly beneath 1 µM. Entry: O=C(CCCCCNC(=O)c1[nH]c(-c2ccc(O)cc2)cc1-c1ccccc1)NO
Condition not met

State whether 1 µM exceeds IC50 recorded for O=C(CCCCCNC(=O)c1[nH]c(-c2ccc(O)cc2)cc1-c1ccoc1)NO .
Condition met

Determine if O=C(CCCCCNC(=O)c1[nH]c(-c2ccccc2)cc1-c1ccc(O)cc1)NO shows IC50 strictly lower than 1 µM.
Condition not met
